Tested on: TK-10 renal
Assay: NCI-60 one-dose screen, 48 h
Settings: 10 µM
This is part of a sample that, as a whole, favours compounds with a hit. Of some 83,000 tested, about 20% had one in any assay. Calls of active or inactive are those of the source. How the source made its calls: active means growth percent below 10; inactive means the rest.
Labels: active, inactive

- COc1cc(-c2ccc[nH]2)[nH]c1/C=C1\N=C(C)C(C(=O)NC(C)C)=C1C: inactive
- CC(=O)OC1CC2C(C)(C)CCC[C@]2(C)C2=C1C(O)=C(C(C)C)C(=O)C2=O (stereo partly specified): inactive
- CCCCN1C(=O)CC(SC2CC(=O)N(CCCC)C2=O)C1=O (stereo unspecified): inactive
- O=C1/C=C/[C@@H](O)[C@@H]2C[C@@H](O)C[C@H]2/C=C/CCC[C@H](CCc2ccc(NC(=S)Nc3ccc4c(c3)C(=O)OC43c4ccc(O)cc4Oc4cc(O)ccc43)cc2)O1: active
- CNC(=O)c1cc(Oc2ccc3c(c2)sc2nc(-c4ccc(NC(=O)Nc5ccc(Cl)c(C(F)(F)F)c5)cc4)cn23)ccn1: inactive
- Cc1c2cnccc2c(C)c2c1c1cc(O)ccc1n2C(C)C: inactive
- COc1ccc2nc(Cl)c(Cn3nnc(Cc4ccccc4)n3)cc2c1: inactive
- CN1CCN(CCCn2c(=O)c3sc4ncccc4c3n3nnc(-c4ccccc4)c23)CC1: active
- C[C@]12CCC3c4ccc(O)cc4C[C@@H](CCCCCCCCCS(=O)CCCC(F)(F)C(F)(F)F)C3C1CC[C@@H]2O (stereo partly specified): inactive
- CCCCCOC(=O)Nc1nc(=O)n(C2O[C@H](C)[C@@H](O)[C@H]2O)cc1F (stereo partly specified): inactive
- Cc1ccc(/C=C/C(=O)C(=O)/C=C/c2ccc(C)cc2)cc1: inactive
- OC(CNc1ccnc2cc(Cl)ccc12)CNC1CCCCC1 (stereo unspecified): inactive
- CCOC(=O)C1C(C(=O)OCC)C2C(=O)C3C(C(=O)OCC)C(C(=O)OCC)C3C(=O)C12 (stereo unspecified): inactive
- CC(=O)C1CCC2C3CC=C4CC(SC(=N)N)CCC4(C)C3CCC12C (stereo unspecified): inactive
- C[C@H]1[C@H](OC(=O)CCC(=O)O)O[C@@H]2O[C@]3(C)CC[C@H]4[C@H](C)CC[C@@H]1[C@@]24OO3: inactive
- COc1ccc2c(c1)C(=O)/C(=C/c1ccc([N+](=O)[O-])o1)O2: active
- CCOC(=O)c1cc(C(=O)c2ccc(OC)c(OC)c2)n2ccncc12: inactive
- CC(=O)N[C@H](C(=O)N[C@@H](CCCNC(=N)N)C(=O)N[C@@H](CCCCN)C(=O)N[C@@H](CCCNC(=N)N)C(=O)NC(C(=O)N[C@@H](CC(C)C)C(=O)N[C@@H](CCCNC(=N)N)C(=O)N[C@@]1(C)CCC/C=C\CCC[C@@](C)(C(=O)N[C@@H](CCCNC(=N)N)C(=O)N[C@@H](CCC(=O)O)C(=O)N[C@@H](CC(C)C)C(=O)N[C@H](C(=O)N[C@@H](CCC(=O)O)C(N)=O)C(C)C)NC(=O)[C@H](CCC(N)=O)NC(=O)[C@H](CC(C)C)NC(=O)[C@H](CC(C)C)NC1=O)[C@@H](C)O)C(C)C (stereo partly specified): active
- NS(=O)(=O)Oc1ccc2c(ccn2C(=O)C23CC4CC(CC(C4)C2)C3)c1: inactive
- COc1ccc([C@H]2[C@H](C(=O)Nc3cccnc3)c3ccccc3C(=O)N2c2ccccc2)cc1: inactive
- C[N+]1(CCCCC[N+]2(C)CCCC2)CCCC1: inactive
- O=c1c(Br)ccc(Br)cc1Br: active
- O=C(Nc1ccc(OS(=O)(=O)c2ccccc2)cc1)C1CCCCC1: inactive
- C[C@@H](O)[C@H]1C(=O)N2C(C(=O)O)=C(SC3CN[C@H](C(=O)N(C)C)C3)[C@H](C)[C@H]12 (stereo partly specified): inactive
- O=C(Nc1ccc2c(O)cc(S(=O)(=O)O)cc2c1)c1ccc([N+](=O)[O-])cc1: inactive
- COc1ccc2nc(-c3ccc(Cl)cc3)cc(-c3nnc(SC/C(=N\O)c4ccccc4)n3-c3ccccc3)c2c1: inactive
